- Tested on: S. epi 12228
- assay-comment: MIC broth microdilution assay
- Type: cell-based, Staphylococcus epidermidis
- measurement-setup: Staphylococcus epidermidis, 12228; single plate shown as picture; read-out: MIC (µM), MIC Assay Against S. epidermidis 12228
# Lookup of reported MIC keyed by entry
Field format: number, assumed µM, no unit text.

compound: Cc1ccc2nc3c(O)c(Br)cc(Br)c3nc2c1C
readout-name: MIC
display-unit: µM
reported-result: 6.25
--
compound: Oc1c(Br)cc(Br)c2nc3ccc(Cl)cc3nc12
readout-name: MIC
display-unit: µM
reported-result: 12.5
--
compound: Oc1c(Br)cc(Br)c2nc3ccccc3nc12 [HP 1, 2,4-dibromo-1-hydroxyphenazine]
readout-name: MIC
display-unit: µM
reported-result: 3.13

Please look at the following compound next.
For the compound CCc1cccc2nc3c(O)c(Br)cc(Br)c3nc12 , what MIC is on record?
0.39

###

- Test system: MRSA BAA-1707
- assay-comment: MIC broth microdilution assay
- Format: cell-based, Staphylococcus aureus
- measurement-setup: Staphylococcus aureus, Table 3; read-out: MRSA BAA-1707 MIC
readout-name: MIC (µM)
Field: numeric (µM). Do not append units.

As a guide, the following entries are already answered.
compound: CCCCCCCCCC(=O)N[C@@H](Cc1c[nH]c2ccccc12)C(=O)N[C@H](CC(N)=O)C(=O)N[C@@H](CC(=O)O)C(=O)N[C@@H]1C(=O)NCC(=O)N[C@@H](CCCN)C(=O)N[C@@H](CC(=O)O)C(=O)N[C@H](C)C(=O)N[C@@H](CC(=O)O)C(=O)NCC(=O)N[C@H](CO)C(=O)N[C@@H]([C@H](C)CC(=O)O)C(=O)N[C@@H](CC(=O)c2ccccc2N)C(=O)O[C@@H]1C [daptomycin, reference compound]
MIC / µM: 3.13
--
compound: Oc1c(Br)cc(Br)c2nc3c(Cl)cccc3nc12
MIC / µM: 0.08
--
compound: Oc1c(Br)cc(Br)c2nc3ccc(Cl)cc3nc12
MIC / µM: 0.15
--
compound: CC(=O)NC[C@H]1CN(c2ccc(N3CCOCC3)c(F)c2)C(=O)O1 [linezolid, reference compound]
MIC / µM: 12.5
--
compound: Cc1cccc2nc3c(O)c(Br)cc(Br)c3nc12 [HP 17, 6-methyl-2,4-dibromo-1-hydroxyphenazine]
MIC / µM: 0.3

I'd like to know its MIC. The compound in question is Cc1ccc2nc3c(O)c(Br)cc(Br)c3nc2c1C
0.15

Which MIC is listed for COCCOCCOCCOCCOC(=O)Oc1c(Br)cc(Br)c2nc3c(C)cccc3nc12 ?
0.003

What does the record list as MIC for Cc1cc(Br)c(O)c2nc3ccccc3nc12 ?
3.13

Report MIC for O=C(O)CN(CCN(CC(=O)O)CC(=O)O)CC(=O)O [EDTA, ethylenediaminetetraacetic acid, reference compound] please.
25

###

- Tested on: MRSA BAA-1707
- assay-comment: Calgary Biofilm Device (CBD) MBC/MBEC assay
- Type: cell-based, Staphylococcus aureus
- measurement-setup: Figure 7A, single CBD plate
readout-name: MRSA-1707 Biofilm Eradication MBEC (µM)
API: value field is a number in µM; no unit string.

compound: Cc1cccc2nc3c(O)c(Br)cc(Br)c3nc12 [HP 17, 6-methyl-2,4-dibromo-1-hydroxyphenazine]
display-unit: µM
MRSA-1707 Biofilm Eradication MBEC: 6.25

Let us examine a further case.
Item under review: Oc1c(Br)cc(Br)c2nc3ccccc3nc12 [HP 1, 2,4-dibromo-1-hydroxyphenazine] . Reported MRSA-1707 Biofilm Eradication MBEC?
50

###

- Tested on: MRSA BAA-1707
- assay-comment: MIC assay with metal(II) cation co-treatment
- Type: cell-based, Staphylococcus aureus
- measurement-setup: Staphylococcus aureus, magnesium(II) at 200 µM co-treatment; read-out: MIC w/Mg2+
readout-name: log10 of MIC (log10 of the value in µM)
# log10 transformed; quantity=MIC; unit=µM

molecule: Oc1cccc2nc3ccccc3nc12 [1-OHP, 1-hydroxyphenazine, reference compound]
measured-target: MRSA BAA-1707
log10 of MIC: 2.40
--
molecule: O=C(O)CN(CCN(CC(=O)O)CC(=O)O)CC(=O)O [EDTA, ethylenediaminetetraacetic acid, reference compound]
measured-target: MRSA BAA-1707
log10 of MIC: 1.70
--
molecule: Cc1cccc2nc3c(O)c(Br)cc(Br)c3nc12 [HP 17, 6-methyl-2,4-dibromo-1-hydroxyphenazine]
measured-target: MRSA BAA-1707
log10 of MIC: -0.52

Which log10 of MIC reading was recorded for the molecule Oc1c(Br)cc(Br)c2nc3c(Cl)cccc3nc12 [HP 21] ?
-0.82

Given C[C@H]1c2cccc(O)c2C(=O)C2=C(O)[C@]3(O)C(=O)C(C(N)=O)=C(O)[C@@H](N(C)C)[C@@H]3[C@@H](O)[C@@H]21 [Doxy., Doxycycline, reference compound] , state its recorded log10 of MIC.
-0.11

# log10 of MIC lookup, item COCCOCCOCCOCCOC(=O)Oc1c(Br)cc(Br)c2nc3c(C)cccc3nc12 [HP 25]
-2.33

###

- Test system: VRE 700221
- assay-comment: MIC broth microdilution assay
- Assay type: cell-based, Enterococcus faecium
- measurement-setup: Enterococcus, VRE, Table 1; read-out: MIC VRE 700221
Listing: MIC of selected compounds
Give a bare numeral; the unit µM is implied.

Below, each entry is followed by its recorded MIC result.
compound: CC(=O)NC[C@H]1CN(c2ccc(N3CCOCC3)c(F)c2)C(=O)O1 [linezolid, reference compound]
MIC [µM]: 3.13
//
compound: COCCOCCOCCOCCOC(=O)Oc1c(Br)cc(Br)c2nc3ccccc3nc12
MIC [µM]: 6.25
//
compound: Cc1cc(Br)c(O)c2nc3cc(Cl)ccc3nc12
MIC [µM]: 12.5
//
compound: CCCCCCCCCC(=O)N[C@@H](Cc1c[nH]c2ccccc12)C(=O)N[C@H](CC(N)=O)C(=O)N[C@@H](CC(=O)O)C(=O)N[C@@H]1C(=O)NCC(=O)N[C@@H](CCCN)C(=O)N[C@@H](CC(=O)O)C(=O)N[C@H](C)C(=O)N[C@@H](CC(=O)O)C(=O)NCC(=O)N[C@H](CO)C(=O)N[C@@H]([C@H](C)CC(=O)O)C(=O)N[C@@H](CC(=O)c2ccccc2N)C(=O)O[C@@H]1C [daptomycin, reference compound]
MIC [µM]: 125
//
compound: CCc1cccc2nc3c(O)c(Br)cc(Br)c3nc12
MIC [µM]: 0.15
//
compound: Cc1cc(Br)c(O)c2nc3ccccc3nc12
MIC [µM]: 3.13
//
compound: Cc1cc(Br)c(O)c2nc3cccc(Cl)c3nc12
MIC [µM]: 3.13
//
compound: CCc1cc(Br)c2nc3c(C)cc(Br)c(O)c3nc2c1
MIC [µM]: 50

# ---- query compound ----
Please give the measured MIC for this compound: CCCCc1cc(Br)c(O)c2nc3ccccc3nc12
0.78

###

- Tested on: MRSA BAA-1707
- assay-comment: Calgary Biofilm Device (CBD) MBC/MBEC assay
- Type: cell-based, Staphylococcus aureus
- measurement-setup: CBD, biofilm eradication, 24 hours treatment
Readings of MRSA BAA-1707 MBEC for the listed molecules

MRSA BAA-1707 MBEC lookup needed for CC(=O)NC[C@H]1CN(c2ccc(N3CCOCC3)c(F)c2)C(=O)O1 [linezolid, reference compound] , thanks.
> 2000 µM

Give its MRSA BAA-1707 MBEC value. Item: Cc1cccc2nc3c(O)c(Br)cc(Br)c3nc12 [HP 17, 6-methyl-2,4-dibromo-1-hydroxyphenazine]
6.25/6.25 µM

Param item = CCCCCCCCCCCCCCCC[N+](C)(C)Cc1ccccc1.[Cl-] [BAC-16, reference compound] ; retrieve measured MRSA BAA-1707 MBEC.
15.6 µM

Tell me the measured MRSA BAA-1707 MBEC of CCCCCCCCCC(=O)N[C@@H](Cc1c[nH]c2ccccc12)C(=O)N[C@H](CC(N)=O)C(=O)N[C@@H](CC(=O)O)C(=O)N[C@@H]1C(=O)NCC(=O)N[C@@H](CCCN)C(=O)N[C@@H](CC(=O)O)C(=O)N[C@H](C)C(=O)N[C@@H](CC(=O)O)C(=O)NCC(=O)N[C@H](CO)C(=O)N[C@@H]([C@H](C)CC(=O)O)C(=O)N[C@@H](CC(=O)c2ccccc2N)C(=O)O[C@@H]1C [daptomycin, reference compound] , please.
> 2000 µM

###

- System: MRSA-1
- assay-comment: MIC broth microdilution assay
- Format: cell-based, Staphylococcus aureus
- measurement-setup: Staphylococcus aureus, MRSA; single plate shown as picture; read-out: MIC (µM), MIC Assay Against MRSA-1
readout-name: MIC (µM)
Numeric only. Scale: µM

compound-smiles: COCCOCCOCCOCCOC(=O)Oc1c(Br)cc(Br)c2nc3c(C)cccc3nc12
MIC / µM: 0.1
//
compound-smiles: CCc1cccc2nc3c(O)c(Br)cc(Br)c3nc12
MIC / µM: 0.2

Which MIC value is on record for Oc1c(Br)cc(Br)c2nc3c(Cl)cccc3nc12 ?
0.1
